Data origin, for the record: patent US4036984A

System: Fusarium oxysporum f. cucumerinum
assay_notes: Fungicidal test by agar dilution method (colony diameter)
Type: cell-based
conditions_used: 1000 ppm; 4 days, 25° C., PSA medium
diameter of the colony values for the compounds below.

# compound, diameter of the colony, mm
data = [
    ("CC(C)(C)C(=O)OCCOc1ccccc1", 13),
    ("CCCCCCCCCCCC(=O)OCCOc1ccccc1", 40),
    ("CC(C)C(=O)OCCOc1ccccc1", 17),
    ("CCC(=O)OCCOc1ccccc1", 9),
    ("CCCC(=O)OCCOc1ccccc1", 22),
    ("CC(C)CC(=O)OCCOc1ccccc1", 15),
    ("CCCCCCCC(=O)OCCOc1ccccc1", 29),
    ("CCCCCCC(=O)OCCOc1ccccc1", 24),
    ("CCCCC(=O)OCCOc1ccccc1", 22),
    ("CCC(C)C(=O)OCCOc1ccccc1 (centres unmarked)", 16),
    ("CCCCCC(=O)OCCOc1ccccc1", 22),
    ("O=COCCOc1ccccc1", 10),
    ("CC(CC(=O)OCCOc1ccccc1)CC(C)(C)C (centres unmarked)", 35),
    ("CCCCCCCCCC(=O)OCCOc1ccccc1", 38),
]
